B1: PHTF1 (parent)
chain: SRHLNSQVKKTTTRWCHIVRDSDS

Variants of: B1
protocolDescription: protein stability index of a GFP-peptide fusion (GPS, HEK-293T) (PSI 1-6); higher = more stable;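 note: lentivirally expressed fusions sorted by FACS into six bins by GFP to DsRed ratio, PSI derived from sequencing read proportions per bin multiplied by bin number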
experimentalConditions: c terminus: a fixed tail appended

[
  {
    "mutationId": "N5Y",
    "protein stability index": 2.16
  },
  {
    "mutationId": "D23L",
    "protein stability index": 1.75
  },
  {
    "mutationId": "C16F",
    "protein stability index": 2.07
  },
  {
    "mutationId": "K10I",
    "protein stability index": 1.61
  },
  {
    "mutationId": "T13I",
    "protein stability index": 1.41
  },
  {
    "mutationId": "C16E",
    "protein stability index": 2.34
  },
  {
    "mutationId": "T13S",
    "protein stability index": 2.05
  },
  {
    "mutationId": "T13H",
    "protein stability index": 2.02
  },
  {
    "mutationId": "D21T",
    "protein stability index": 2.79
  },
  {
    "mutationId": "T11S",
    "protein stability index": 1.83
  },
  {
    "mutationId": "T11G",
    "protein stability index": 2.48
  },
  {
    "mutationId": "N5T",
    "protein stability index": 2.38
  },
  {
    "mutationId": "K9F",
    "protein stability index": 1.83
  },
  {
    "mutationId": "R20C",
    "protein stability index": 1.39
  },
  {
    "mutationId": "R2Q",
    "protein stability index": 2.4
  },
  {
    "mutationId": "L4E",
    "protein stability index": 2.56
  },
  {
    "mutationId": "W15E",
    "protein stability index": 4.88
  },
  {
    "mutationId": "S6Q",
    "protein stability index": 2.61
  },
  {
    "mutationId": "V19Q",
    "protein stability index": 2.81
  },
  {
    "mutationId": "L4I",
    "protein stability index": 2.75
  },
  {
    "mutationId": "Q7V",
    "protein stability index": 1.4
  },
  {
    "mutationId": "S22E",
    "protein stability index": 1.87
  },
  {
    "mutationId": "C16W",
    "protein stability index": 2.27
  },
  {
    "mutationId": "H17E",
    "protein stability index": 1.29
  },
  {
    "mutationId": "R20L",
    "protein stability index": 2.17
  },
  {
    "mutationId": "S22N",
    "protein stability index": 1.48
  },
  {
    "mutationId": "T13W",
    "protein stability index": 1.82
  },
  {
    "mutationId": "V19W",
    "protein stability index": 1.62
  },
  {
    "mutationId": "R2S",
    "protein stability index": 2.23
  },
  {
    "mutationId": "Q7M",
    "protein stability index": 1.73
  },
  {
    "mutationId": "N5K",
    "protein stability index": 1.8
  },
  {
    "mutationId": "T13N",
    "protein stability index": 1.91
  },
  {
    "mutationId": "D23I",
    "protein stability index": 2.16
  },
  {
    "mutationId": "S22I",
    "protein stability index": 1.45
  },
  {
    "mutationId": "T12K",
    "protein stability index": 1.82
  },
  {
    "mutationId": "S6T",
    "protein stability index": 1.83
  },
  {
    "mutationId": "R20K",
    "protein stability index": 1.25
  },
  {
    "mutationId": "S22Q",
    "protein stability index": 2.65
  },
  {
    "mutationId": "S22T",
    "protein stability index": 1.94
  },
  {
    "mutationId": "V19H",
    "protein stability index": 1.66
  },
  {
    "mutationId": "R14E",
    "protein stability index": 3.35
  },
  {
    "mutationId": "S6D",
    "protein stability index": 2.88
  },
  {
    "mutationId": "H3F",
    "protein stability index": 2.77
  },
  {
    "mutationId": "N5M",
    "protein stability index": 1.45
  },
  {
    "mutationId": "H3L",
    "protein stability index": 2.08
  },
  {
    "mutationId": "V19D",
    "protein stability index": 3.23
  }
]
